# target.or.system: UniProtKB P46663
# Sequence (P46663 whole entry): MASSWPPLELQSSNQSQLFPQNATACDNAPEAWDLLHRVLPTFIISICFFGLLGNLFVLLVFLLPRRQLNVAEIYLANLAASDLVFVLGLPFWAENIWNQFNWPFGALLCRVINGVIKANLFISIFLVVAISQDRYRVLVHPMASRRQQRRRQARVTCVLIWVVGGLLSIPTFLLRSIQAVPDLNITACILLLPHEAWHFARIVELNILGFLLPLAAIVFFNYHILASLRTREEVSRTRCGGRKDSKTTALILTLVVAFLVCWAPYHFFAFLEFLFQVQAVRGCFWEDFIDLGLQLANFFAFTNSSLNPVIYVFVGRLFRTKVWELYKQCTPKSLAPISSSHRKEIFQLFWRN
# assay: Competitive binding assay with 3H radioligand on CHO-K1 cell membranes over-expressing human B1R
# Set-up: purchased Perkin Elmer Inc., Waltham, Mass; ES-091-M400UA; host or cells: CHO-K1 cells over-expressing human B1R (membrane preparation)
# condition: Hot 4.5 nM BK-ANT-ARC; CHO-K1 membranes; individual assays; read-out: Ki
observed.property: pKi
A value of pKi is the negative decimal logarithm of a concentration given in moles per litre.

Write down pKi measured for item COc1cc(C)c(S(=O)(=O)N(C)CCOCC(=O)N2CCC(C3CCN(CCF)CC3)CC2)c(C)c1
9.09

Cited source for all entries: patent US10039846B2
